ASSAY_REMARKS: Pharmacokinetic evaluation after single iv and po administration to mice
Assay type: in vivo, C57BL/6J male mice
STATED_CONDITIONS: male, C57BL/6J, mouse, 1 mg/kg; iv 1 mg/5 ml/kg single dose; plasma
Answer each item with its documented AUC(0-inf).
Express it in ng·h/mL; write the number only.

Ask | AUC(0-inf) lookup needed for O=C(NCc1ccc(NC(=O)c2ccccc2)nc1)c1cccnc1 , thanks.
Reply | 408

Ask | AUC(0-inf) lookup needed for CC(C)(C)C(=O)Nc1ccc(CNC(=O)c2cccnc2)cn1 , thanks.
Reply | 1160

Ask | AUC(0-inf) lookup needed for O=C(NCCCOCCOCCCNC(=O)c1cccnc1)c1cccnc1 , thanks.
Reply | 234

---

ASSAY_REMARKS: Pharmacokinetic evaluation after single iv and po administration to mice
Format: in vivo, C57BL/6J male mice
STATED_CONDITIONS: male, C57BL/6J, mouse, 10 mg/kg; po 10 mg/10 ml/kg single dose; plasma
MEASURED_PROPERTY: AUC(0-t) (µg·h/mL)
Express it in µg·h/mL; write the number only.

Ask | AUC(0-t) lookup needed for CC(C)(C)C(=O)Nc1ccc(CNC(=O)c2cccnc2)cn1 , thanks.
Reply | 14.1

Ask | AUC(0-t) lookup needed for O=C(NCc1ccc(NC(=O)c2ccccc2)nc1)c1cccnc1 , thanks.
Reply | 2.41

Ask | AUC(0-t) lookup needed for O=C(NCCCOCCOCCCNC(=O)c1cccnc1)c1cccnc1 , thanks.
Reply | 0.293

---

SYSTEM_NAME: hSARM1 (Homo sapiens, UniProt Q6SZW1)
Sequence (Q6SZW1 28-724): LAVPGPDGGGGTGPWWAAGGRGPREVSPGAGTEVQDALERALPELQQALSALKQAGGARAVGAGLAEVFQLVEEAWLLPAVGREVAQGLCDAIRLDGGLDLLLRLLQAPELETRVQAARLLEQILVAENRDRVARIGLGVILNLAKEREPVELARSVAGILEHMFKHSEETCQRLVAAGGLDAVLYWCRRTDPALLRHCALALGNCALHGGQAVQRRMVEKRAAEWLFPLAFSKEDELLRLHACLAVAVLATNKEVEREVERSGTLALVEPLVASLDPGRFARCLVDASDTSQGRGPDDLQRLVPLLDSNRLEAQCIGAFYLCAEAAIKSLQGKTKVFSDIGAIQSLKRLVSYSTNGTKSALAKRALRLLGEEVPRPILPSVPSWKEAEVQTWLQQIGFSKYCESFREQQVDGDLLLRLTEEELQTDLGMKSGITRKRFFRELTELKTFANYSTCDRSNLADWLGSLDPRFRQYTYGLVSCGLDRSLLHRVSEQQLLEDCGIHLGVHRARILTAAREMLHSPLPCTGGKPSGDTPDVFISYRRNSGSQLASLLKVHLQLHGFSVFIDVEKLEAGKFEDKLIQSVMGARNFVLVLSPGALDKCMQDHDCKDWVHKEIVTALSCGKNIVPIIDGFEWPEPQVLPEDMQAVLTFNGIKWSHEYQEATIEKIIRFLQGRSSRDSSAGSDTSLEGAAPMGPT
ASSAY_REMARKS: Human SARM1 activity measurement in HEK293 cells transiently transfected with ΔN-hSARM1 (PC6 fluorescent probe)
Type: cell-based
Design: expressed in transfected cells; host or cells: HEK293, pcDNA3 expression vector
STATED_CONDITIONS: inhibition rate; compound 30 µM; PC6 50 µM; HEK293 cells expressing ΔN-hSARM1; approximately 48 hours from transfection; read-out: Evaluation on hSARM1 inhibitory
MEASURED_PROPERTY: inhibition at 30 µM

Ask | inhibition at 30 µM lookup needed for CC(C)(C)OC(=O)NCCCOCCOCCCNC(=O)c1cccnc1 [compound 70] , thanks.
Reply | > 50%

Ask | inhibition at 30 µM lookup needed for COc1cccc(OCCNC(=O)/C=C/c2cccnc2)c1 [compound 19] , thanks.
Reply | > 75%

Ask | inhibition at 30 µM lookup needed for O=C(NCCOCCOc1ccc(CNC(=O)c2ccccc2)cc1)c1cccnc1 [compound 13] , thanks.
Reply | > 75%

Ask | inhibition at 30 µM lookup needed for O=C(NCc1cccc(CNC(=O)c2cc(F)cc(F)c2)n1)c1cccnc1 [Compound 152] , thanks.
Reply | > 25%

Ask | inhibition at 30 µM lookup needed for O=C(/C=C/c1cccnc1)NCCCNC(=O)/C=C/c1cccnc1 [compound 39] , thanks.
Reply | > 75%

Ask | inhibition at 30 µM lookup needed for O=C(/C=C/c1cccnc1)NCCOCCNC(=O)/C=C/c1cccnc1 [compound 37] , thanks.
Reply | > 75%

Ask | inhibition at 30 µM lookup needed for O=C(NCc1ccc(NC(=O)c2ccc(F)cc2F)nc1)c1cccnc1 [Compound 139] , thanks.
Reply | > 25%

Ask | inhibition at 30 µM lookup needed for CCCCC(=O)N(C(=O)CCCC)c1ccc(CNC(=O)c2cccnc2)cn1 [Compound 171] , thanks.
Reply | > 50%

Ask | inhibition at 30 µM lookup needed for O=C(/C=C/c1cccnc1)NCc1ccccc1NC(=O)/C=C/c1cccnc1 [compound 60] , thanks.
Reply | > 10%

Ask | inhibition at 30 µM lookup needed for O=C(NCc1ccc(NC(=O)C23CC4CC(CC(C4)C2)C3)nc1)c1cccnc1 [Compound 142] , thanks.
Reply | > 75%

Ask | inhibition at 30 µM lookup needed for O=C(Cc1cccc(C(F)(F)F)c1)Nc1ccc(CNC(=O)c2cccnc2)cn1 [Compound 156] , thanks.
Reply | > 75%

Ask | inhibition at 30 µM lookup needed for COc1ccc(/C=C/C(=O)Nc2ccc(CNC(=O)c3cccnc3)cn2)cc1 [Compound 180] , thanks.
Reply | > 75%

Ask | inhibition at 30 µM lookup needed for O=C(/C=C/c1cccnc1)NCCCOc1ccc(CNC(=O)c2ccccc2)cc1 [compound 16] , thanks.
Reply | > 75%

Ask | inhibition at 30 µM lookup needed for CC(C)(C)C(=O)Nc1ccc(CNC(=O)c2cccnc2)cn1 [compound 76] , thanks.
Reply | > 50%

Ask | inhibition at 30 µM lookup needed for O=C(NCc1ccc(NC(=O)C2COC2)cc1)c1cccnc1 [compound 93] , thanks.
Reply | > 50%

Ask | inhibition at 30 µM lookup needed for O=C(NCc1ccc(NC(=O)c2ccncc2)nc1)c1cccnc1 [Compound 124] , thanks.
Reply | > 75%

Ask | inhibition at 30 µM lookup needed for O=C(NCc1ccc(NC(=O)C2CCCCC2)nc1)c1cccnc1 [Compound 113] , thanks.
Reply | > 75%

Ask | inhibition at 30 µM lookup needed for C/C(=C\C(=O)NCCCCCCNC(=O)/C=C(\C)c1cccnc1)c1cccnc1 [compound 42] , thanks.
Reply | > 75%

Ask | inhibition at 30 µM lookup needed for O=C(NCc1ccc(NC(=O)c2cccc(F)c2)nc1)c1cccnc1 [Compound 116] , thanks.
Reply | > 75%

---

SYSTEM_NAME: hSARM1 (Homo sapiens)
ASSAY_REMARKS: Human SARM1 activity measurement in HEK293 cells transiently transfected with ΔN-hSARM1 (PC6 fluorescent probe)
Assay type: cell-based
Set-up: expressed in transfected cells; host or cells: HEK293, pcDNA3 expression vector
STATED_CONDITIONS: inhibition rate; compound 30 µM; PC6 50 µM; HEK293 cells expressing ΔN-hSARM1; approximately 48 hours from transfection; read-out: Evaluation on hSARM1 inhibitory
Answer each item with its documented inhibition at 30 µM.

Ask | inhibition at 30 µM lookup needed for O=C(NCCCOCCOCCCNC(=O)c1ccc2ccccc2c1)c1cccnc1 [Compound 187] , thanks.
Reply | > 25%

Ask | inhibition at 30 µM lookup needed for N#Cc1ccc(OCC(=O)Nc2ccc(CNC(=O)c3cccnc3)cn2)cc1 [Compound 174] , thanks.
Reply | > 75%

Ask | inhibition at 30 µM lookup needed for O=C(/C=C/c1ccccc1)NCc1ccc(CNC(=O)c2cccnc2)cc1 [compound 66] , thanks.
Reply | > 75%

Ask | inhibition at 30 µM lookup needed for O=C(NCCCCCCN1CCN(CCOC(=O)c2cccnc2)CC1)c1cccnc1 [compound 95] , thanks.
Reply | > 50%

Ask | inhibition at 30 µM lookup needed for N#Cc1ccc(/C=C/C(=O)Nc2ccc(CNC(=O)c3cccnc3)cn2)cc1 [Compound 166] , thanks.
Reply | > 75%

Ask | inhibition at 30 µM lookup needed for O=C(/C=C/c1cccnc1)Nc1ccc(CNC(=O)c2cccnc2)cn1 [compound 75] , thanks.
Reply | > 75%

Ask | inhibition at 30 µM lookup needed for CCC(C)C(=O)Nc1ccc(CNC(=O)c2cccnc2)cn1 (stereo not drawn) [Compound 161] , thanks.
Reply | > 10%

Ask | inhibition at 30 µM lookup needed for O=C(NCc1ccc(NC(=O)c2ccc(-c3ccccc3)cc2)nc1)c1cccnc1 [Compound 128] , thanks.
Reply | > 75%

Ask | inhibition at 30 µM lookup needed for O=C(CCc1ccccc1)Nc1ccc(CNC(=O)c2cccnc2)cn1 [Compound 115] , thanks.
Reply | > 75%

---

Answer each item with its documented inhibition at 30 µM.
SYSTEM_NAME: hSARM1 (Homo sapiens, UniProt Q6SZW1)
ASSAY_REMARKS: Human SARM1 activity measurement in HEK293 cells transiently transfected with ΔN-hSARM1 (PC6 fluorescent probe)
Format: cell-based
Set-up: expressed in transfected cells; host or cells: HEK293, pcDNA3 expression vector
STATED_CONDITIONS: inhibition rate; compound 30 µM; PC6 50 µM; HEK293 cells expressing ΔN-hSARM1; approximately 48 hours from transfection; read-out: Evaluation on hSARM1 inhibitory

Ask | inhibition at 30 µM lookup needed for Cc1ccc(C(=O)Nc2ccc(CNC(=O)c3cccnc3)cn2)cc1C , thanks.
Reply | > 75%

Ask | inhibition at 30 µM lookup needed for Cc1ccc(CC(=O)Nc2ccc(CNC(=O)c3cccnc3)cn2)cc1 , thanks.
Reply | > 75%

Ask | inhibition at 30 µM lookup needed for C/C(=C\C(=O)NCCOCCOc1ccc(CNC(=O)c2cccnc2)cc1)c1cccnc1 , thanks.
Reply | > 50%

Ask | inhibition at 30 µM lookup needed for O=C(NCCOCCOc1cccc(O)c1)c1cccnc1 , thanks.
Reply | > 75%

Ask | inhibition at 30 µM lookup needed for COc1cccc(OCCOCCNC(=O)/C=C/c2cccnc2)c1 , thanks.
Reply | > 75%

Reference source: patent EP4793271A1
